Assay: VP16 counterscreen qHTS for inhibitors of ROR gamma transcriptional activity
Conditions: Drosophila S2 Gal4-VP16 UAS-luciferase, luminescence, 20 h; series mostly up to 53.6 µM
Among all 310,000 compounds or so, about 11,000 (3.5%) were called active. Not shown: some 8% with an inconclusive outcome. Calls come from the whole dose curve; as a rule, active = well fitted inhibition curve with a large enough effect; inconclusive = small, poorly fitted or top-dose-only effect, or effect the other way; inactive = flat fitted curve, though single readings scatter. For the sample, actives were picked, then their nearest neighbours and some compounds at random.
In this exercise, the only acceptable responses are active, inactive

Dear all, I need the recorded test outcome for CCN(CC)CCn1c(=S)[nH]c2ncccc2c1=O , thank you.
inactive

---

Experiment: VP16 counterscreen qHTS for inhibitors of ROR gamma transcriptional activity
Details: Drosophila S2 Gal4-VP16 UAS-luciferase, luminescence, 20 h; series mostly up to 53.6 µM
The campaign covered roughly 310,000 compounds. About 11,000 (3.5%) were called active. Inconclusive results (about 8%) are left out. The call rests on the fitted dose curve; in most records, active means well fitted inhibition curve with a large enough effect; inconclusive means small, poorly fitted or top-dose-only effect, or effect the other way; inactive means flat fitted curve, though single readings scatter. The sample as a whole holds a higher share of actives than the screen did.
In this exercise, the only acceptable responses are active, inactive

Sample answers from the record:
> print(dat)
                                   compound  category
1  CCc1c(C)c2ccc(OC3CCCCC3=O)cc2oc1=O (configuration not stated)  inactive
2  C=CCOC(=O)C1=C(C)NC(C)=C(C(=O)OCC=C)C1c1cccs1  inactive
3   Cc1cc2occ(CC(=O)NNC(=O)c3ccccc3F)c2cc1C  inactive
4  Cc1ccc(CN2CCC(n3nccc3NC(=O)CCCc3ccccc3)CC2)o1  inactive
5                O=C(CCCc1ccccc1)NCc1ccccc1  inactive
6         O=CN1CCN(C(=O)c2ccc3c(c2)OCO3)CC1  inactive

Dear all, I need the recorded test outcome for CCOC(=O)C(C)Sc1nc2ccccc2c(=O)n1CC1CCCCC1 (configuration not stated) , thank you.
inactive

Dear all, I need the recorded test outcome for CCOC(=O)C1=C(C)Nc2nc3ccccc3n2C1c1cccs1 (configuration not stated) , thank you.
active

Dear all, I need the recorded test outcome for COc1ccc(-c2cc(C(=O)N3CCN(Cc4ccc5c(c4)OCO5)CC3)on2)cc1OC , thank you.
inactive

Dear all, I need the recorded test outcome for O=c1c2ccccc2nc2n1C1(CCCCC1)Cc1ccccc1-2 , thank you.
inactive

Dear all, I need the recorded test outcome for C=CCN1CCN(C(=O)CCCc2ccccc2)CC1 , thank you.
active

Dear all, I need the recorded test outcome for N#Cc1cccc(CN2CCC(=O)N([C@H](CO)c3ccccc3)CC2)c1 , thank you.
inactive

---

Assay: VP16 counterscreen qHTS for inhibitors of ROR gamma transcriptional activity;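 note: Gal4-VP16 expression switched on by copper sulfate through the metallothionein promoter; nearly all actives have a fitted effect of over 50% in size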
Conditions: Drosophila S2 Gal4-VP16 UAS-luciferase, luminescence, 20 h; series mostly up to 53.6 µM
Among all 310,000 compounds or so, about 11,000 (3.5%) were called active. About 8% were inconclusive and are not listed. The call rests on the fitted dose curve; in most records, active means well fitted inhibition curve with a large enough effect; inconclusive means small, poorly fitted or top-dose-only effect, or effect the other way; inactive means flat fitted curve, though single readings scatter. The entries come from a sample that favours actives as a whole.
In this exercise, the only acceptable responses are active, inactive

Dear all, I need the recorded test outcome for Cn1nccc1C(=O)NC1CCCc2c1cnn2-c1ccc(F)cc1F (stereo unspecified) , thank you.
active

Dear all, I need the recorded test outcome for C=CCOc1c(Br)cc(/C=N\n2nnnc2N)cc1OC , thank you.
inactive

Dear all, I need the recorded test outcome for Cn1nccc1C(=O)NC1CCCc2c1cnn2-c1ccccc1F (stereo unspecified) , thank you.
active

Dear all, I need the recorded test outcome for CC(C)(C)c1ccc(CCC2OCC(CN3CCOCC3)O2)cc1 (stereo unspecified) , thank you.
active

Dear all, I need the recorded test outcome for COc1ccc(NC(=O)c2sc3nc(C)nc(N4CCN(c5ccccn5)CC4)c3c2C)c(OC)c1 , thank you.
inactive

Dear all, I need the recorded test outcome for CCOc1cc(/C=C/c2nc3ccccc3c(=O)[nH]2)cc(Br)c1OC , thank you.
inactive

Dear all, I need the recorded test outcome for Cn1nccc1CNC(=O)c1ccnn1C , thank you.
inactive

Dear all, I need the recorded test outcome for O=C(Cc1ccccc1)Nc1ccc(C(=O)Nc2ccccc2C(=O)O)cc1 , thank you.
inactive

Dear all, I need the recorded test outcome for Cc1cc(C(=O)NC2CCCc3c2cnn3-c2cccc(C)c2C)c(C)o1 (stereo unspecified) , thank you.
inactive

Dear all, I need the recorded test outcome for Cc1noc(C)c1-c1ccc2ncnc(NCc3ccc4[nH]ccc4c3)c2c1 , thank you.
inactive

Dear all, I need the recorded test outcome for Cc1ccc(-n2ncc3c2CCCC3NC(=O)c2cnccn2)cc1C (stereo unspecified) , thank you.
inactive

---

Test: VP16 counterscreen qHTS for inhibitors of ROR gamma transcriptional activity;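 note: Gal4-VP16 expression switched on by copper sulfate through the metallothionein promoter; nearly all actives have a fitted effect of over 50% in size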; note: potency is the fitted concentration of half-maximal effect
Settings: Drosophila S2 Gal4-VP16 UAS-luciferase, luminescence, 20 h; series mostly up to 53.6 µM
Among all 310,000 compounds or so, about 11,000 (3.5%) were called active. About 8% were inconclusive and are not listed. The list comes from a sample in which actives are over-represented; it also holds close analogues and randomly drawn compounds.
attribute.measured: Potency

> print(dat)
                                   compound  attribute.measured    reported.value
1  CCOC(=O)C(C)n1cnc2c(nnn2-c2cccc(OC)c2)c1=O (centres undefined)             Potency          inactive
2  O=C(NNC(=S)Nc1ccccc1)c1cccc(S(=O)(=O)N2CCOCC2)c1             Potency          inactive
3      CC1(C)Cc2cccc(OCC(=O)NCc3ccccc3)c2O1             Potency          inactive
4  O=C(Nc1cccnc1)c1cccc(S(=O)(=O)N2CCCC2)c1             Potency          inactive
5    Cc1ccc(OCC(=O)Nc2ccc3oc(=O)ccc3c2)cc1C             Potency          inactive
6  CC(C)=C(NC(=O)c1ccccc1)C(=O)N/N=C(\C)c1ccccc1O             Potency  2.51 µM (active)
7    O=C(CO/N=C/c1ccccc1O)NNC(=O)c1ccccc1Cl             Potency  14.1 µM (active)
8   NS(=O)(=O)c1ccc(Nc2nc(-c3ccccc3)cs2)cc1             Potency          inactive

Specify measured Potency for CCc1cccc(NC(=S)N(CCN(C)C)C2CCN(C(C)C)CC2)c1 .
inactive

Specify measured Potency for CC(C)CNC(=O)C(=O)NCc1ccccc1 .
inactive

---

Test: VP16 counterscreen qHTS for inhibitors of ROR gamma transcriptional activity;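 note: Gal4-VP16 expression switched on by copper sulfate through the metallothionein promoter; nearly all actives have a fitted effect of over 50% in size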
Settings: Drosophila S2 Gal4-VP16 UAS-luciferase, luminescence, 20 h; series mostly up to 53.6 µM
About 11,000 (3.5%) of roughly 310,000 compounds were called active. Roughly 8% stayed inconclusive and do not appear here. The call rests on the fitted dose curve; in most records, active means well fitted inhibition curve with a large enough effect; inconclusive means small, poorly fitted or top-dose-only effect, or effect the other way; inactive means flat fitted curve, though single readings scatter. The sample holds actives, similar compounds and a random draw of the others, so the mix is not that of the screen.
In this exercise, the only acceptable responses are active, inactive

Sample answers from the record:
compound	category
O=C(/C=C/c1ccc(F)cc1)NCCNC(=O)/C=C/c1ccc(F)cc1	inactive
COc1ccccc1-c1nnc(NC(=O)c2ccc3ncsc3c2)o1	active
CC(=O)Oc1c2c(c3c(c1CC=C(C)C)O[C@@]14C(=CC5CC1C(C)(C)OC4(C/C=C(\C)C(=O)O)C5=O)C3=O)OC(C)(CCC=C(C)C)C=C2 (stereo partly specified)	active
Cc1ccc(NC(=O)c2c(NC(=O)CCC(=O)O)sc3c2CCCCC3)cc1	inactive
C=CCNC(=S)N/N=C/c1ccc(OCc2ccccc2)cc1	inactive
COc1cccc(OC)c1C(=O)Nc1c(C(=O)N2CCN(c3ccccn3)CC2)oc2ccccc12	inactive
COc1ccccc1N(CC(=O)N/N=C(\C)c1ccccc1O)S(=O)(=O)c1ccc(C)cc1	active
NC(=O)c1c(NC(=O)c2ccccc2)sc2c1CCCC2	inactive
COc1cccc(N2CCN(c3ccc4nnc(CCC(=O)N5CCN(C)CC5)n4n3)CC2)c1	inactive
O=C(Nc1cc2ccccc2oc1=O)C1CCCCC1	inactive

Dear all, I need the recorded test outcome for CN(c1ccccc1)S(=O)(=O)c1ccc(Cl)c(C(=O)OCC(N)=O)c1 , thank you.
inactive

Dear all, I need the recorded test outcome for O=C(CN1CCC(NC(=O)Nc2ccccc2)CC1)Nc1cccc([N+](=O)[O-])c1 , thank you.
inactive

Dear all, I need the recorded test outcome for O=C(Nc1ccc(S(=O)(=O)N2CCOCC2)cc1)c1ccc2ncsc2c1 , thank you.
inactive

Dear all, I need the recorded test outcome for CCn1c(CC(=O)Nc2ccccc2)nnc1SCC(=O)N1CCOCC1 , thank you.
inactive

Dear all, I need the recorded test outcome for O=C(CN1CCCC1)Nc1sc2c(c1C(=O)Nc1ccccc1)CCCC2 , thank you.
active

Dear all, I need the recorded test outcome for CC(=O)NCC(=O)N1CCC(n2nccc2NC(=O)CCCc2ccccc2)CC1 , thank you.
inactive

---

Experiment: VP16 counterscreen qHTS for inhibitors of ROR gamma transcriptional activity;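 note: Gal4-VP16 expression switched on by copper sulfate through the metallothionein promoter; nearly all actives have a fitted effect of over 50% in size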
Settings: Drosophila S2 Gal4-VP16 UAS-luciferase, luminescence, 20 h; series mostly up to 53.6 µM
About 11,000 (3.5%) of roughly 310,000 compounds were called active. Inconclusive results (about 8%) are left out. Calls follow the shape of the dose curve; as a rule, active = well fitted inhibition curve with a large enough effect; inconclusive = small, poorly fitted or top-dose-only effect, or effect the other way; inactive = flat fitted curve, though single readings scatter. The list comes from a sample in which actives are over-represented; it also holds close analogues and randomly drawn compounds.
In this exercise, the only acceptable responses are active, inactive

Dear all, I need the recorded test outcome for O=C(O)COc1ccc(-c2nccc(-c3cccs3)n2)cc1 , thank you.
active

Dear all, I need the recorded test outcome for CCOC(=O)C1CCN(C(=O)COc2cccc3ccccc23)CC1 , thank you.
inactive

Dear all, I need the recorded test outcome for CC(C)[C@@H]1COC(c2cccc(C3=N[C@H](C(C)C)CO3)c2)=N1 , thank you.
inactive

Dear all, I need the recorded test outcome for CC(C)CCNc1nc(N2CCCC2)c2c(c1C#N)CCN(C)C2 , thank you.
active

Dear all, I need the recorded test outcome for Cc1ccc(-c2cnc(NC(=O)CCC(=O)N(C)Cc3ccccc3)n2C)cc1 , thank you.
active

Dear all, I need the recorded test outcome for COc1ccc(CNC(=O)C2CCN(S(=O)(=O)c3ccc(SC)cc3)CC2)cc1 , thank you.
inactive
